Attribution: patent US6849732B2

Target: stromelysin (HSLN) (Homo sapiens)
Sequence (P08254 100-477): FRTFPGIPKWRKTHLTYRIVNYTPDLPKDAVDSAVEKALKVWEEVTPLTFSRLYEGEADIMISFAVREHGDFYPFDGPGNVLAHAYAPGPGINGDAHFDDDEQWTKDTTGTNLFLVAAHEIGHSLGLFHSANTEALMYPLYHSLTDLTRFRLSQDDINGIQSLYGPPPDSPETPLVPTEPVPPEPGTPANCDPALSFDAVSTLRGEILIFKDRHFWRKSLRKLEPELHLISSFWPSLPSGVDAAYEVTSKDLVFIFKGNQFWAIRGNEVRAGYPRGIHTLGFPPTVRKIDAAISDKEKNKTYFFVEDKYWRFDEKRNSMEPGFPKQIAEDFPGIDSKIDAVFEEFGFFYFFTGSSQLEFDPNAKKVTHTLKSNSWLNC
Assay: MCA fluorogenic enzyme assay, competitive inhibition analysis (Ki,app), stromelysin
Format: biochemical
Conditions: Ki,app; MCA peptide substrate, 37° C., pH 7.5; read-out: Enzyme Inhibition Constants (K1) HSLN
Counter-ions that a name gives are not always drawn.
readout-type: pKi
Just so you know, pKi here is -log10 of the concentration in molar units; reply with that number alone.

Examples with answers:
CC(C)(C)OC(=O)N1CCN(S(=O)(=O)c2ccc(Oc3ccc(Cl)cc3)cc2)[C@@H](C(=O)NO)C1 : 9.51
CC1(C)NC(=O)CN(S(=O)(=O)c2ccc(Oc3ccc(F)cc3)cc2)C1C(=O)NO (racemic) : 9.08
CC1(C)C(C(=O)NO)N(S(=O)(=O)c2ccc(Oc3ccc(Cl)cc3)cc2)CC[S+]1[O-] (stereo not drawn) : 8.60
O=C(NO)[C@@H]1C[S@+]([O-])CCN1S(=O)(=O)c1ccc(Oc2ccc(Br)cc2)cc1 (racemic) : 9.39
O=C(NO)[C@H]1CNCCN1S(=O)(=O)c1ccc(Oc2ccc(Cl)cc2)cc1 [Example 10(a), hydrochloride] : 9.00
O=C(NO)[C@H]1COCCN1S(=O)(=O)c1ccc(Oc2ccc(Cl)cc2)cc1 : 10.03
CC(C)(C)OC(=O)N1CCN(S(=O)(=O)c2ccc(Oc3ccccn3)cc2)C(C(=O)NO)C1 (racemic) : 7.77
Cn1cnc(S(=O)(=O)N2CCN(S(=O)(=O)c3ccc(Oc4ccc(Cl)cc4)cc3)[C@@H](C(=O)NO)C2)c1 : 10.05

Now for another entry.
Return reported pKi; argument: CS(=O)(=O)N1CCN(S(=O)(=O)c2ccc(Oc3ccc(Cl)cc3)cc2)[C@@H](C(=O)NO)C1
10.37

###

Sequence of the target: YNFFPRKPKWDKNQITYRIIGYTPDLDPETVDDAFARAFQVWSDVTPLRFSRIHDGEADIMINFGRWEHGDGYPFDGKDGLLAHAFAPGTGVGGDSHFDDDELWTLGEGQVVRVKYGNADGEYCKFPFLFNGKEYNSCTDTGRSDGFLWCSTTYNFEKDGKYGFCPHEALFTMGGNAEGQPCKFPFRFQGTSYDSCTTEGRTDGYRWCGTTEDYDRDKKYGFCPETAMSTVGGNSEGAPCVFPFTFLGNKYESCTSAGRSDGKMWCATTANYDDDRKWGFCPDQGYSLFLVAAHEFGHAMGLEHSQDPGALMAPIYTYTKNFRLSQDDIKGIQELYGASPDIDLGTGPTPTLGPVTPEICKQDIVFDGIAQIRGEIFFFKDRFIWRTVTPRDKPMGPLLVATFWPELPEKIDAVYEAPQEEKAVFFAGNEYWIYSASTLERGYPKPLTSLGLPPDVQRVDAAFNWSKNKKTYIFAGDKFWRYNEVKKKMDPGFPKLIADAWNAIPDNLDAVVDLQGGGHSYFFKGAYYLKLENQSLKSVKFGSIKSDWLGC
Parameter pKi: see the listing below.
Just so you know, pKi here is -log10 of the concentration in molar units; reply with that number alone.

CC1(C)[C@H](C(=O)NO)N(S(=O)(=O)c2ccc(Oc3ccncc3)cc2)CC[S@@+]1[O-] (single isomer, unassigned; isomer 1) [Example 19(a), 1(R), 3(S) isomer] : 10.03

Return reported pKi; argument: CN1CCN(S(=O)(=O)c2ccc(Oc3ccccc3)cc2)[C@@H](C(=O)NO)C1 [Example 11(b)]
10.00

Return reported pKi; argument: O=C(NO)C1CSCCN1S(=O)(=O)c1ccc(Oc2ccc(Br)cc2)cc1 (racemic) [Example 13(a)]
10.40

###

Target: gelatinase A (HG72kD) (Homo sapiens, UniProt P08253)
Sequence (P08253 110-660): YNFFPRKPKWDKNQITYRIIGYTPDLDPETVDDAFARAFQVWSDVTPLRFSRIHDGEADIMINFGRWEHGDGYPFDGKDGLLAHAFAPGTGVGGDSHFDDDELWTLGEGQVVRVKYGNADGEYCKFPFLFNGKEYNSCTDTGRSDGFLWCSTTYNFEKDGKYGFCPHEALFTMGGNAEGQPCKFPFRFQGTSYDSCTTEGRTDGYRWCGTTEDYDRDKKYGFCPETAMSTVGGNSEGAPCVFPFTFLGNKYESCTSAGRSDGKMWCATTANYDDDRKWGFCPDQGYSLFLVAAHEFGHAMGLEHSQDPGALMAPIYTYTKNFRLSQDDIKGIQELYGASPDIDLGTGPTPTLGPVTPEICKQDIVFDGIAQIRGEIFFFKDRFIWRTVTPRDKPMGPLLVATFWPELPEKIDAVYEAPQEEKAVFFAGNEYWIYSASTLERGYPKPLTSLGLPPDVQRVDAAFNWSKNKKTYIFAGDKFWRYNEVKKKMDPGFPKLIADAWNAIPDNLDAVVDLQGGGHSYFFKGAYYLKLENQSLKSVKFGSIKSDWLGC
readout-type: log10 of Ki (log10 of the value in nM)
Log10 applied to Ki; unit prior to transform: nM.

Examples with answers:
CC(C)(C)OC(=O)N1CCN(S(=O)(=O)c2ccc(Oc3ccc(Cl)cc3)cc2)[C@@H](C(=O)NO)C1 : -2.15
CC1(C)C(C(=O)NO)N(S(=O)(=O)c2ccc(Oc3ccc(Cl)cc3)cc2)CC[S+]1[O-] (stereo not drawn) : -1.74
CC1(C)SCCN(S(=O)(=O)c2ccc(Oc3ccc(-n4ccnc4)cc3)cc2)[C@H]1C(=O)NO : -1.96
CS(=O)(=O)N1CCN(S(=O)(=O)c2ccc(Oc3ccc(Cl)cc3)cc2)[C@@H](C(=O)NO)C1 : -2.52
CS(=O)(=O)N1CCN(S(=O)(=O)c2ccc(Oc3ccc(F)cc3)cc2)[C@@H](C(=O)NO)C1 : -2.15

Return reported log10 of Ki; argument: CC1(C)[C@H](C(=O)NO)N(S(=O)(=O)c2ccc(Oc3ccncc3)cc2)CC[S@+]1[O-] [Example 19(a), 1(S), 3(S) isomer]
-0.31

Return reported log10 of Ki; argument: CC(C)(C)OC(=O)N1CCN(S(=O)(=O)c2ccc(Oc3ccccn3)cc2)C(C(=O)NO)C1 (racemic)
-0.15

Return reported log10 of Ki; argument: CC(=O)N1CCN(S(=O)(=O)c2ccc(Oc3ccccc3)cc2)C(C(=O)NO)C1 (racemic)
-0.96

Return reported log10 of Ki; argument: O=C(NO)C1CSCCN1S(=O)(=O)c1ccc(Oc2ccccc2)cc1 (racemic)
-1.60

Return reported log10 of Ki; argument: CC(C)(C)OC(=O)N1CCN(S(=O)(=O)c2ccc(Oc3ccc(F)cc3)cc2)[C@@H](C(=O)NO)C1
-1.59

Return reported log10 of Ki; argument: CNC(=O)N1CCN(S(=O)(=O)c2ccc(Oc3ccc(Cl)cc3)cc2)C(C(=O)NO)C1 (racemic)
-1.47

Return reported log10 of Ki; argument: CC1(C)[C@H](C(=O)NO)N(S(=O)(=O)c2ccc(Oc3ccc(Br)cc3)cc2)CC[S@@+]1[O-]
-2.05

###

Tested on: murine Lewis lung carcinoma (NIH) tumor line
Experiment: Tumor model: subcutaneous Lewis lung carcinoma, primary tumor growth and lung metastases
Assay type: in vivo, female BDF1 mice
Conditions: 50 mg/kg, i.p., daily, Day 1-Day 21; delay in reaching 1000 mm^3 tumor volume between control and treated animals
Parameter Tumor Growth Delay: see the listing below.
Just the number in days, nothing appended.

Examples with answers:
Cl.O=C(NO)C1CNCCN1S(=O)(=O)c1ccc(Oc2ccc(Br)cc2)cc1 (racemic) : 2.0
O=C(NO)[C@H]1COCCN1S(=O)(=O)c1ccc(Oc2ccc(Cl)cc2)cc1 : -0.1

Return reported Tumor Growth Delay; argument: CC(=O)N1CCN(S(=O)(=O)c2ccc(Oc3ccccc3)cc2)C(C(=O)NO)C1 (racemic)
0.0

###

Biological target: Coll3 (Homo sapiens, UniProt P45452)
Structures can show the parent of a compound that is named as a salt.
readout-type: Ki (nM)
Just the number in nM, nothing appended.

O=C(NO)[C@H]1CNCCN1S(=O)(=O)c1ccc(Oc2ccc(F)cc2)cc1 [Example 10(b), hydrochloride] : 0.257
CC1(C)SCCN(S(=O)(=O)c2ccc(Oc3ccc(-n4ccnc4)cc3)cc2)[C@H]1C(=O)NO : 0.017

// lookup Ki | system=Coll3 (Homo sapiens, UniProt P45452) | key= CS(=O)(=O)N1CCN(S(=O)(=O)c2ccc(Oc3ccc(F)cc3)cc2)[C@@H](C(=O)NO)C1
0.005

// lookup Ki | system=Coll3 (Homo sapiens, UniProt P45452) | key= CC1(C)NC(=O)CN(S(=O)(=O)c2ccc(Oc3ccc(F)cc3)cc2)C1C(=O)NO (racemic)
0.068

###

Target: stromelysin (HSLN) (Homo sapiens)
Assay: MCA fluorogenic enzyme assay, competitive inhibition analysis (Ki,app), stromelysin
Type: biochemical
Conditions: Ki,app; MCA peptide substrate, 37° C., pH 7.5; read-out: Enzyme Inhibition Constants (K1) HSLN
pKi: −log10 of the molar value.
Please note: 1.0 applies when pKi is 9 or greater, and 0.0 applies otherwise.

CC1(C)SCCN(S(=O)(=O)c2ccc(Oc3ccc(Br)cc3)cc2)[C@H]1C(=O)NO : 1.0
CC1(C)SCCN(S(=O)(=O)c2ccc(Oc3ccc(-n4ccnc4)cc3)cc2)[C@H]1C(=O)NO : 1.0
CC(C)(C)OC(=O)N1CCN(S(=O)(=O)c2ccc(Oc3ccc(F)cc3)cc2)[C@@H](C(=O)NO)C1 : 1.0

Attention now turns to another entry.
Is pKi for CN1CCN(S(=O)(=O)c2ccc(Oc3ccccc3)cc2)[C@@H](C(=O)NO)C1 at or above 9?
0.0
